experiment: 16-week dose-ranging study of testosterone ophthalmic solutions in patients with keratoconjunctivitis sicca, serum pharmacokinetics
Assay type: in vivo, human
test_context: human, serum, other: ophthalmic solution, eye drop, one drop twice daily; 0.1% solution, 10 minutes after dosing, female patients; baseline approximately 20 ng/dL
measurement_name: concentration at 10 min

1) C[C@]12CC[C@H]3[C@@H](CCC4=CC(=O)CC[C@@]43C)[C@@H]1CC[C@@H]2O [testosterone, (17β)-17-Hydroxyandrost-4-en-3-one] :: 2 ng/mL

----------
experiment: 16-week dose-ranging study of testosterone ophthalmic solutions in patients with keratoconjunctivitis sicca, serum pharmacokinetics
Assay type: in vivo, human
test_context: human, serum, other: ophthalmic solution, eye drop, one drop twice daily; 0.3% solution, 10 minutes after dosing, female patients; baseline approximately 20 ng/dL
measurement_name: concentration at 10 min (ng/mL)

1) C[C@]12CC[C@H]3[C@@H](CCC4=CC(=O)CC[C@@]43C)[C@@H]1CC[C@@H]2O [testosterone, (17β)-17-Hydroxyandrost-4-en-3-one] :: 3.5

----------
experiment: 16-week dose-ranging study of testosterone ophthalmic solutions in patients with keratoconjunctivitis sicca, serum pharmacokinetics
Type: in vivo, human
test_context: human, serum, other: ophthalmic solution, eye drop, one drop twice daily; 0.01% solution, 10 minutes after dosing, female patients; baseline approximately 20 ng/dL
measurement_name: concentration at 10 min (ng/mL)

1) C[C@]12CC[C@H]3[C@@H](CCC4=CC(=O)CC[C@@]43C)[C@@H]1CC[C@@H]2O [testosterone, (17β)-17-Hydroxyandrost-4-en-3-one] :: 0.35
